biological target: hPR (Homo sapiens, UniProt P06401); experiment: hPR cotransfection assay in CV-1 cells, antagonist mode; assay type: cell-based; conditions: CV-1 cells
Sequence (P06401 whole entry): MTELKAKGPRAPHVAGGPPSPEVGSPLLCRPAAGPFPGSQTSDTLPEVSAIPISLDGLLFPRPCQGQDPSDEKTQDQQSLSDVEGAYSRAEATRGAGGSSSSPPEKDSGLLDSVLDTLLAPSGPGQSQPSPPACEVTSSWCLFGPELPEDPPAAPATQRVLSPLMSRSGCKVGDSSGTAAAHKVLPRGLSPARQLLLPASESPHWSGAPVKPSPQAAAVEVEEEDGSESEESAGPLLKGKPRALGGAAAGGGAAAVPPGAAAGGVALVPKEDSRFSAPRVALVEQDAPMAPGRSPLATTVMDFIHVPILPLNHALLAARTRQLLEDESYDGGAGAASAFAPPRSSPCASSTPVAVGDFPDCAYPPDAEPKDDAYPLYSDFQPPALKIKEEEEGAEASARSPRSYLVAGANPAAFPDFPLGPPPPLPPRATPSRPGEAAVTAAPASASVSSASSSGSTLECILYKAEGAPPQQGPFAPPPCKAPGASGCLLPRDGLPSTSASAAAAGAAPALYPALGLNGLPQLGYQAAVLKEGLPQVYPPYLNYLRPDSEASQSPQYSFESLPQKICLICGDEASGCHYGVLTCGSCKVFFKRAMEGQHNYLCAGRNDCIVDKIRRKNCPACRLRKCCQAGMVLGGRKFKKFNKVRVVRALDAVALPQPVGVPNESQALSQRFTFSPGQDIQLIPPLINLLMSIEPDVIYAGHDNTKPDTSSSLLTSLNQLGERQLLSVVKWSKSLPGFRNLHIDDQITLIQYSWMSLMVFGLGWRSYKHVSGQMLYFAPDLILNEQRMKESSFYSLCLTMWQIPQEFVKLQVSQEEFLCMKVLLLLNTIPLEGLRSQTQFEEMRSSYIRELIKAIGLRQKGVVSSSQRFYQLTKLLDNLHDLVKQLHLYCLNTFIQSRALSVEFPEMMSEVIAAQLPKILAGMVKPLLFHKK
Measured IC50, listed per entry for reference.

[[record]]
molecule = "CC1=CC(C)(C)Nc2ccc3c(c21)C(c1ccc(Cl)c(C)c1)Oc1c(F)cc(F)cc1-3 (racemic) [Compound 37]"
experimental_target = "hPR (Homo sapiens, UniProt P06401)"
measured_endpoint = "IC50"
measured = "> 10 µM"

[[record]]
molecule = "CC1=CC(C)(C)Nc2ccc3c(c21)/C(=C/c1ccccc1)Oc1c(F)cc(F)cc1-3"
experimental_target = "hPR (Homo sapiens, UniProt P06401)"
measured_endpoint = "IC50"
measured = "> 10 µM"

[[record]]
molecule = "CC1=CC(C)(C)Nc2ccc3c(c21)/C(=C/c1cc(F)ccc1F)Oc1c(F)cc(F)cc1-3"
experimental_target = "hPR (Homo sapiens, UniProt P06401)"
measured_endpoint = "IC50"
measured = "> 10 µM"

[[record]]
molecule = "CC1=CC(C)(C)Nc2ccc3c(c21)C(c1cccc(C)c1)Oc1c(F)cc(F)cc1-3 (racemic)"
experimental_target = "hPR (Homo sapiens, UniProt P06401)"
measured_endpoint = "IC50"
measured = "> 10 µM"

[[record]]
molecule = "CC1=CC(C)(C)Nc2ccc3c(c21)/C(=C/c1ccncc1)Oc1c(F)cc(F)cc1-3"
experimental_target = "hPR (Homo sapiens, UniProt P06401)"
measured_endpoint = "IC50"
measured = "> 10 µM"


Please examine the following record next.
GET /value?item= COC1Oc2c(F)cc(F)cc2-c2ccc3c(c21)C(C)=CC(C)(C)N3 (racemic) &field=IC50 returns 0.075 µM
